target: T1, mouse CD36 (on HEK 293 cells) (mouse, UniProt Q08857 1-472); assay: FACS, HEK 293 cells transiently overexpressing CD36;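 further: antibody binding to transfected cells detected by flow cytometry with a fluorescent anti-human secondary antibody, EC50 from a four-parameter sigmoidal fit of mean fluorescence intensity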
T1 construct: also called Murine CD36
T1 sequence (Q08857 whole entry): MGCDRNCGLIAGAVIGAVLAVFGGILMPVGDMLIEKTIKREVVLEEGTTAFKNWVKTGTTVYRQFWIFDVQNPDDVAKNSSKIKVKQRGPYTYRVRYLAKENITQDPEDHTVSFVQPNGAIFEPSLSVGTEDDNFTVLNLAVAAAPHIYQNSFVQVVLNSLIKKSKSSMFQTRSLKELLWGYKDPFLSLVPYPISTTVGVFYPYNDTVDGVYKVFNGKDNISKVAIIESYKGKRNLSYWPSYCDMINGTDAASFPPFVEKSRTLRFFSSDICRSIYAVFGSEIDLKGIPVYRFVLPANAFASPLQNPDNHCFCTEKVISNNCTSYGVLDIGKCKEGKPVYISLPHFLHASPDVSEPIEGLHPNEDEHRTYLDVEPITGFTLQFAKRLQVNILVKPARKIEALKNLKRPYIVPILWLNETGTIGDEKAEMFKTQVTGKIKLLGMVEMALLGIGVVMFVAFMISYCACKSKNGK

BINDER	EC50
10G04 (antibody, human IgG1, V domains shown, Chimeric: mouse variable regions on human IgG1 LALA (L234A/L235A); also called 010G04) VH: DVQLQESGPELVKPGASVKISCKASGYTFTDYNMHWVKQSHGKSLEWIGYIYPYNGGTGYNQKFKSKATLTVDNSSSTAYMELRSLTSEDSAVYYCARDGGYDVYFDYWGQGTTLTVSS VL: DVVMTQTPLSLPVSLGDQASISCRSSQSLVHSNGNTYLHWYLQKPGQSPKLLIYKVSNRFSGVPDRFSGSGSGTDFTLKISRVEAEDLGVYYCFQGSHVPWTFGGGTKLEIK	16 nM
34G04 (antibody, human IgG1, V domains shown, Chimeric: chicken variable regions on human IgG1 LALA (L234A/L235A); also called 034G04) VH: AVTLDESGGGLQTPGGALSLVCKASGFDFSSYAMGWVRQAPGKGLEWVAGKAKDGGGTAYGSAVKGRATISRDNGQSTVRLQLSNLRAEDTGVYYCAKSAYGDWFYGSSGPYADSIDAWGHGTEVIVSS VL: ALTQPSSVSANPGETVKITCSGGDNYAGSYYYGWYQQKSPGSAPVTVIYDDTNRPADIPSRFSGSTSGSTNTLTITGVRAEDEAVYFCGGWDSINDRNIFGAGTTLTVL	6.75 nM
19G04 (antibody, human IgG1, V domains shown, Chimeric: mouse variable regions on human IgG1 LALA (L234A/L235A); also called 019G04) VH: EVQLQQSGPELVKPGASVKISCETSGHTFTEYTMHWVKQSHGKSLEWIGGIYPNNGATKYNQKFKGKATLTVDKSSSTAYMELRSLTSEDSAVYYCARDRYDVWFAYWGQGTLVTVSA VL: ETTVTQSPASLSMAIGEKVTIRCITSTDIDDDMNWYQQKPGEPPKLLISEGNTLRPGVPSRFSSSGYGTDFIFTIENMLSEDVADYYCLQSDNLPLTFGAGTKLELK	22.5 nM
11G04 (antibody, human IgG1, V domains shown, Chimeric: mouse variable regions on human IgG1 LALA (L234A/L235A); also called 011G04) VH: EVQLQQSGAELVRPGASVTLSCKASGYRFSDYEMQWVKQTPVHGLEWIGGIDPETGGIAYNQKFKVKATLTADKSSSTAFMELRSLTSEDSAVYYCTRKLDFDYWGQGTTLTVSS VL: ETTVTQSPASLSVATGEKVTIRCITSTDIDDDMNWYQQKPGEPPKLLISEGNTLRPGVPSRFSSSGYGTDFVFTIENMLSEDVADYYCLQSDNLPLTFGAGTKLELK	11.2 nM
13G04 (antibody, human IgG1, V domains shown, Chimeric: mouse variable regions on human IgG1 LALA (L234A/L235A); also called 013G04) VH: QVQLQQSGAELVRPGASVKLSCKASGYTFTSYWMNWVKQRPGQGLEWIGMIDPSDNETHYNQMFKDKATLTVDKSSSTAYMQLSSLTSEDSAVYYCARSDYGNGYSFYLDVWGAGTTVTVSS VL: DIVLTQSPASLAVSLGQRATISCRASESVDSYGNSFMHWYQQKPGQPPKLLIYRASNLESGIPARFSGSGSRTDFTLTINPVEADDVATYYCQQSNEDPWTFGGGTKLEIK	5.93 nM

Data provenance: patent US20250206836A1
